Please respond with reported viability at 100 µM for every item in the list.
# Test system: MDA-MB-231 cells
# assay-procedure: Cell viability MTT assay, MDA-MB-231
# Assay type: cell-based
# experimental-context: Homo sapiens, normoxia, read-out: Cell Viability (%) MDA-MB-231 Normoxia
# Method: In the present study, the potential cytotoxicity of compounds 10a–10p was evaluated in vitro by MTT assay. […] So, half of each cell line were subjected to hypoxic conditions (0.5% O2, 5% CO2 and 94.5% N2) for inducing the expression of CA IX and the other half were incubated under normal conditions (normoxia). Subsequently, all synthesized derivatives were screened at a concentration of 100 μM to test their cytotoxicity in mentioned above cells. […]
Field format: number, assumed %, no unit text.

Form: molecule = O=c1ccc2ccc(OCc3cn([C@@H]4O[C@H](CO)[C@@H](O)[C@H](O)[C@H]4O)nn3)cc2o1 [Compound 10a] ; viability at 100 µM = 51.3

Data point: O=c1ccc2ccc(OCc3cn([C@@H]4O[C@H](CO)[C@@H](O)[C@H]4O)nn3)cc2o1 [Compound 10h] ; viability at 100 µM = 63.7

Data point: Cc1cc(=O)oc2cc(OCc3cn([C@@H]4OC[C@@H](O)[C@H](O)[C@H]4O)nn3)ccc12 [Compound 10m] ; viability at 100 µM = 53.2

Just so you know, measured viability at 100 µM for O=c1ccc2ccc(OCc3cn([C@@H]4OC[C@H](O)[C@H](O)[C@H]4O)nn3)cc2o1 [Compound 10f] came out at 65.6

Value of measured viability at 100 µM for the entry Cc1cc(=O)oc2cc(OCc3cn([C@@H]4OC[C@H](O)[C@H](O)[C@H]4O)nn3)ccc12 [Compound 10n] : 65.7

viability at 100 µM in this record for C[C@@H]1O[C@H](n2cc(COc3ccc4ccc(=O)oc4c3)nn2)[C@H](O)[C@H](O)[C@H]1O [Compound 10g] : 53.2

###

# assay-procedure: Metabolic stability in mouse liver microsomes
# experimental-context: mouse, liver microsomes
experimental-endpoint: half-life at 1 μM (h)
Enter your answer as a number in h; do not include the unit.

Short answer for Cc1cc(=O)oc2cc(OCc3cn([C@@H]4O[C@H](CO)[C@@H](O)[C@H](O)[C@H]4O)nn3)ccc12 [Compound 10i] : half-life at 1 μM was 23.9

Value of half-life at 1 μM reported for the compound O=c1ccc2ccc(OCc3cn([C@@H]4O[C@H](CO)[C@@H](O)[C@H](O)[C@@H]4O)nn3)cc2o1 [Compound 10c] is 22.4

Short answer for O=c1ccc2ccc(OCc3cn([C@@H]4OC[C@H](O)[C@H](O)[C@H]4O)nn3)cc2o1 [Compound 10f] : half-life at 1 μM was 24.4

Summary for this compound, Cc1cc(=O)oc2cc(OCc3cn([C@@H]4O[C@H](CO)[C@@H](O)[C@H]4O)nn3)ccc12 [Compound 10p] : half-life at 1 μM is 30.7

The recorded half-life at 1 μM for Cc1cc(=O)oc2cc(OCc3cn([C@@H]4O[C@H](CO)[C@H](O)[C@H](O)[C@H]4O)nn3)ccc12 [Compound 10j] is 26.1

The recorded half-life at 1 μM for Cc1cc(=O)oc2cc(OCc3cn([C@@H]4O[C@H](CO)[C@@H](O)[C@H](O)[C@H]4N)nn3)ccc12 [Compound 10l] is 29.8
